system: HS 578T breast; experiment: NCI tumour cell line growth inhibition, 48 h
observable: log10 of TGI (log10 of the value in µM)
Units before log transform: µM; reported quantity: TGI; transform: log10.

molecule: CCN(CC)CCOCCOCC1(c2ccc(Cl)c(Cl)c2)CCCCC1
study-target: HS 578T breast
experimental-result: 1.14
--
molecule: CCC(CO)Nc1nc(NCc2ccccc2)c2n[nH]c(C(C)C)c2n1 (stereo not given)
study-target: HS 578T breast
experimental-result: 1.54
--
molecule: N[C@@H](Cc1c[nH]c2ccccc12)C(=O)NC1CCN(Cc2c[nH]c3ccc(Cl)cc23)CC1
study-target: HS 578T breast
experimental-result: 1.39

Requested field: log10 of TGI. Item: O=C1NCN(c2ccccc2)C12CCN(CCCN1CCN(CCOC(c3ccccc3)c3ccccc3)CC1)CC2
0.90

Returns the measured log10 of TGI for the input molecule. Input: COc1cc(OCCCN2CCCC2)ccc1Nc1ncc(Cl)c(Nc2ccccc2P(C)(C)=O)n1
1.00

What value of log10 of TGI has been reported for the following molecule? Cc1cc(-c2nc3ccc(F)cc3s2)ccc1NC(=O)C(N)CCCCN (stereo not given)
1.43

Using the record for Cc1c(C)c(S(=O)(=O)N(CCCN)OCCCN)c(C)c2c1OC(C)(C)CC2 , report its log10 of TGI.
1.47

Reported log10 of TGI, molecule NC(CCl)=NCC12CC3CC(CC(C3)C1)C2 : ____
1.62

====

# GI50 per entry
tested on: HCC-2998 colon; experiment: NCI tumour cell line growth inhibition, 48 h

Known results for compounds:
compound: CO[C@H]1/C=C/O[C@@]2(C)Oc3c(C)c(O)c4c(O)c(c(/C=N/N5C(C)CN(Cc6ccc(C#N)cc6)CC5C)c(O)c4c3C2=O)NC(=O)/C(C)=C\C=C\[C@H](C)[C@H](O)[C@@H](C)[C@@H](O)[C@@H](C)[C@H](OC(C)=O)[C@@H]1C (stereo partly specified)
GI50: 7.87 µM
//
compound: C[N+]1(CCNP(=S)(NCC[N+]2(C)Cc3c(ccc4c3OCO4)C3C2c2cc4c(cc2C[C@@H]3O)OCO4)NCC[N+]2(C)Cc3c(ccc4c3OCO4)C3C2c2cc4c(cc2C[C@@H]3O)OCO4)Cc2c(ccc3c2OCO3)C2C1c1cc3c(cc1C[C@H]2O)OCO3 (stereo partly specified)
GI50: 5.22 µM

Bench note: what GI50 did CC1(C)N=C(N)N=C(N)N1c1cccc(CCCCc2ccc(Cl)c(S(=O)(=O)F)c2)c1 show?
1.92 µM

Which GI50 value is on record for Cc1cccc2c(=O)c3c(sc12)c(NCCCN)nc1ccccc13 ?
1.67 µM

Name the reported GI50 value associated with the compound FC(F)(F)c1cccc(Oc2ccc(Nc3ncnc4ccc(OCCCN5CCOCC5)cc34)cc2Cl)c1
1.72 µM

Given COc1ccc(-c2oc3ncnc(N)c3c2-c2ccc(NC(=O)Nc3cc(C(F)(F)F)ccc3F)cc2)cc1 , state its recorded GI50.
2.08 µM

====

tested on: XF 498 CNS; assay: NCI tumour cell line growth inhibition, 48 h
Recorded TGI, one value per entry.
Could you give me the number in µM? Just the number is fine.

compound: COc1ccc2c(c1)c1ccc3c(c1n2C)C(=O)C=CC3=O
quantity-unit: µM
TGI: 32.1
//
compound: Clc1ccc(-c2nnc(-c3nn(-c4ccccc4)c4nc5ccccc5nc34)o2)cc1
quantity-unit: µM
TGI: 64.6
//
compound: COc1ccc(C2=NN(C(C)=O)c3nc4ccccc4nc3O2)cc1
quantity-unit: µM
TGI: 49.2

Please turn your attention to the following entry.
GET /values?readout=TGI&item= Cn1cnc(SC2=CC(=O)C=C3S[C@H]4C[C@@]23c2c(c(O)c3c5c2=NCCC=5C=N3)N4)c1CC(N)C(=O)O (stereo not given in full)
31.4

====

tested on: TK-10 renal; experiment: NCI tumour cell line growth inhibition, 48 h; in the data active = GI50 below about 0.43 µM; inactive = the rest
Output constraint: value belongs to 1 (active), 0 (inactive)

Reference set (10 entries):
compound: COc1ccc2c(c1)C(=O)c1c-2n(CCCN=[N+]=[N-])c(=O)c2cc([N+](=O)[O-])ccc12
cat: 0
//
compound: CN1C(c2ccccc2)CC(=NO)CC1c1ccccc1 (stereo not drawn)
cat: 0
//
compound: [Mn+3].[O-][Cl+3]([O-])([O-])O.[O-]c1ccccc1C=NCCN1CC1.[O-]c1ccccc1C=NCCN1CC1
cat: 0
//
compound: C#Cc1cccc(Nc2nc(C)nc3cc(NC(=O)CCl)ccc23)c1
cat: 0
//
compound: COc1cc(-c2n/c(=C\c3c(O)[nH]c4ccccc34)cc3c2=Nc2ccccc2-3)ccc1F
cat: 0
//
compound: COc1cc(/C=C2\C[C@H]3[C@@H]4CC=C5C[C@@H](O)CC[C@]5(C)[C@H]4CC[C@]3(C)[C@H]2O)ccc1OCCN1CCCCC1
cat: 0
//
compound: CC1(C)CC[C@]2(C(=O)NCCNCCN)CC[C@]3(C)C(=CC[C@@H]4[C@@]5(C)CCC(=O)C(C)(C)[C@@H]5CC[C@]43C)[C@@H]2C1
cat: 0
//
compound: O=c1oc2ccc(F)cc2c(=O)n1-c1ccc(I)cc1F
cat: 0
//
compound: COc1cc(/C=C/C(=O)c2ccccc2O)ccc1OCCCOc1cc2c(cc1OC)C(=O)N1CCC[C@H]1C=N2
cat: 1
//
compound: Cc1cc(C)c([I+]c2c(C)cc(C)cc2C)c(C)c1
cat: 0

Query: recorded result category for FC(F)(F)c1cccc(Oc2ccc(Nc3ncnc4ccc(OCCCN5CCOCC5)cc34)cc2Cl)c1 in this test
0

Name the outcome recorded for CC(=O)CCc1ccc(Oc2c3ccccc3nc3occc23)cc1 in the assay.
0

# fetch the recorded call for COC(=O)[C@@H](C)C[C@H](Cc1ccc(F)cc1)NC(=O)c1csc([C@@H](C[C@H](C(C)C)N(C)C(=O)[C@@H](NC(=O)[C@H]2CCCCN2C)C2CC2)OC(C)=O)n1 here
0

Can you look up the reported call for CCC(CO)Nc1nc(NCc2ccccc2)c2n[nH]c(C(C)C)c2n1 (stereo not drawn) for me?
0

So what was the verdict on N[C@@H](Cc1c[nH]c2ccccc12)C(=O)NC1CCN(Cc2c[nH]c3ccc(Cl)cc23)CC1 in this test?
0

What was the test verdict on C[C@]1(c2nc3c(C(N)=O)cccc3[nH]2)CCCN1 ?
0

GET /call?item= C=C[C@@H]1CCC/C=C/[C@@H]2C[C@H](O)C[C@H]2[C@H](O)/C=C/C(=O)O1 returns the recorded outcome of this test.
0

Assay outcome for OCC#Cc1ccccc1C#Cc1ccc(C#Cc2ccccc2C#CCO)cc1 : what was it?
0

Query: recorded result category for CCCCCCCCCCCCCCCCCC1=NC(C)(C)CN1C(C)(C)CO in this test
0

Hi team, can someone confirm the assay call for C=C(C)[C@@H]1C/C=C(/COC(C)=O)CC[C@H]2O[C@@]2(C)CC/C=C(\C)CC1 ?
0

Test call, this compound: COc1ccc(-c2oc3ncnc(N)c3c2-c2ccc(NC(=O)Nc3cc(C(F)(F)F)ccc3F)cc2)cc1
0

Hi, sorry to bother you, what did the test record for CO[C@H]1/C=C/O[C@@]2(C)Oc3c(C)c(O)c4c(O)c(c(/C=N/N5C(C)CN(Cc6ccc(C#N)cc6)CC5C)c(O)c4c3C2=O)NC(=O)/C(C)=C\C=C\[C@H](C)[C@H](O)[C@@H](C)[C@@H](O)[C@@H](C)[C@H](OC(C)=O)[C@@H]1C (stereo partly drawn) ?
0

Please state the recorded outcome for this compound: N#Cc1ccc2[nH]cc(Cc3c[nH]c4ccc(C#N)cc34)c2c1
0

====

TGI: recorded values
tested on: SK-MEL-28 melanoma; test: NCI tumour cell line growth inhibition, 48 h
I only need the number, in µM, no unit after it.

compound: CCCCCCCCCCCCCCCCCC1=NC(C)(C)CN1C(C)(C)CO
TGI (µM): 3.28

compound: O=C(/C=C/c1ccc(-c2ccccc2)cc1)c1ccccc1
TGI (µM): 67.5

compound: Oc1cccc2ccc(SSc3ccc4cccc(O)c4n3)nc12
TGI (µM): 41.3

I have this compound here, Cn1cc(-c2ncnc3ccc(-c4cnc(Cl)c(NS(C)(=O)=O)c4)cc23)c2ccccc21 , and I need its recorded TGI.
6.89

So what does the record say about TGI for N=C1c2ccccc2C(=O)c2c(NCCNCCO)ccc(O)c21 ?
23.2

So what does the record say about TGI for O=c1oc2ccc(F)cc2c(=O)n1-c1ccc(I)cc1F ?
1.89

Query (compound): O=C1NCN(c2ccccc2)C12CCN(CCCN1CCN(CCOC(c3ccccc3)c3ccccc3)CC1)CC2 ; field requested: TGI
2.42

Which TGI reading was recorded for the compound COc1ccc2c(c1)c1ccc3c(c1n2C)C(=O)C=CC3=O ?
22.5

I'd like to know its TGI. The compound in question is Cc1ccc(C(=O)C2C=C(c3ccc(C)cc3)SC3C=CCC32)cc1 (stereo not drawn)
33.9

Quick check: TGI of CCCCCCCC(=O)Nc1nc2[nH]c(CN3CCN(Cc4cccc(I)c4)CC3)c(CN3CCN(Cc4cccc(I)c4)CC3)c2c(=O)[nH]1 ?
1.7

Field request: TGI | item: CC(=O)OC1CC2C(C)(C)C(=O)C=C[C@]2(C)C2CCC3(C)C(c4ccoc4)C(=O)C4OC43[C@]12C (stereo partly drawn)
32
